target: T1, recombinant human CD3 epsilon/delta heterodimer (human, UniProt P07766 23-126; P04234 22-105); test: Octet BLI, mAb on FAB2G sensor, hCD3 E/D 200-50 nM; R^2 0.99
T1 construct: Recombinant protein in solution (200-50 nM) in the Octet assay; also called hCD3 E/D; human CD3E/D
T1 sequence (P07766 23-126, stated change not applied, chain 1 of 2): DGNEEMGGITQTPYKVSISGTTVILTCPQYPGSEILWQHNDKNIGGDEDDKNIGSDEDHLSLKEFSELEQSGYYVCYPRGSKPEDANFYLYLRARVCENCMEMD
T1 sequence (P04234 22-105, stated change not applied, chain 2 of 2): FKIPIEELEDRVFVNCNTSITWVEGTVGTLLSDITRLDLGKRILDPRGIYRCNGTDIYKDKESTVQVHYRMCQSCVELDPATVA
List of kon values.
Answer with a number only, understood to be in M⁻¹ s⁻¹.

Use the examples below as a reference point.
ABL-CD3-43 (antibody, V domains shown, Chimeric hybridoma mAb: human V, CH1, upper hinge; mouse middle hinge, CH2, CH3) VH: EVQLVQSGAEVKKPGESLKISCKGSEYSFTTYWIAWVRQMPGKGLEWMGIIYPGDSDTTYSPSFQGQVTISADKSISIAFLQWSSLKASDTAMYYCARQGELDAFDIWGQGTMVTVSS VL: QSALTQPASVSGSPGQSITISCTGTSSDVGSYNLVSWYQQHPGKAPKLMIYEDIRRPSGVSNRFSASKSGDTASLTISGLQAEDEADYYCCSYAGSTTFAIFGGGTKLTVL : 122000
ABL-CD3-10 (antibody, V domains shown, Chimeric hybridoma mAb: human V, CH1, upper hinge; mouse middle hinge, CH2, CH3) VH: QVQLQQSGPGLVKPSQTLSLTCAISGDSVSCNSVAWNWIRQSPSRGLEWLGRTYYRSKWHNEYAVSVKSRINIKPDTSKNQVSLQLKSVTPEDTAVYYCARERKWELFLDYWGQGTLVTVSS VL: NFMLTQPHSVSESPGKTVTISCTRSSGSIASNYVQWYQQRPGSSPTTMIYEDNQRPSGVPDRFSGSIDSSSNSASLTISGLKTEDEADYYCQSLDSSSVVFGGGTKLTVL : 186000
ABL-CD3-20 (antibody, V domains shown, Chimeric hybridoma mAb: human V, CH1, upper hinge; mouse middle hinge, CH2, CH3) VH: EVQLVESGGGLVKPGGSLRLSCAASGLTFSTYSMNWVRQAPGKGLEWVSSISSSGSYVYYADSVKGRFTMSRDNAKNSLYLQMNSLRAEDTAVYYCARERRELLFDYWGQGTLVTVSS VL: NFMLTQPHSVSESPGKTVTISCTRSSGSIASNYVQWYQQRPGSSPTSVIYEDNQRPSGVPDRFSGSIDSSSNSASLTISGLKTEDEADYYCQSYDRSNRVFGGGTKLTVL : 219000
ABL-CD3-60 (antibody, V domains shown, Chimeric hybridoma mAb: human V, CH1, upper hinge; mouse middle hinge, CH2, CH3) VH: EVQLVESGGGLVKPGGSLRLSCAASGFTFSIYSMNWVRQAPGKGLEWVSSISSGSSYIYYADSVKGRFTISRDNAKSSLFLQMNSLRAEDTAVYYCAREKRELLFDYWGQGTLVTVSS VL: NFMLTQPHSVSESPGKTVTISCTRSSGSIASNYVQWYQQRPGSSPTTVIYEDNQRPSGVPDRFSGSIDRSSNSASLTISGLKTEDEADYYCQSYDSSNRVFGGGTKLTVL : 417000
ABL-CD3-5 (antibody, V domains shown, Chimeric hybridoma mAb: human V, CH1, upper hinge; mouse middle hinge, CH2, CH3) VH: EVQLVESGGGLVQPGGSLRLSCAASGFTFSRYSMNWVRQAPGKGLEWVSYISSSSSSIYYADSVKGRFTISRDNAKNSLYLQMNSLRDEDTAVYYCARDRRATLDYWGQGTLVTVSS VL: NFMLTQPHSVSESPGKTVTISCTRSSGSIASNYVQWYQQRPGSSPTTVIYEDNQRPSGVPDRFSGSIDSSSNSASLTISGLKTEDEADYYCQSYDSSNHVFGGGTKLTVL : 365000

Here's the next entry for you.
Lookup: Requested field: kon. Item: ABL-CD3-54 (antibody, V domains shown, Chimeric hybridoma mAb: human V, CH1, upper hinge; mouse middle hinge, CH2, CH3) VH: EVQLVESGGGLVKPGGSLRLSCAASGFTFSSYSMNWVRQAPGKGLEWVSSISRSSRYIFYADSVRGRFTISRDNAKNSLYLQMNSLRAEDTAVYYCAREKRELLFDYWGQGTLVTVSS VL: NSMLTQPHSVSESPGKTVTISCTRSSGSIASYYVQWYQQRPGSSPTTVIYEDNQRPSGVPDRFSGSIDSSSNSASLTISGLKTEDEADYYCQSFDSSNRVFGGGTKLTVL
Found: 152000
